# target.of.assay: T1, human glucose-dependent insulinotropic polypeptide (GIP) receptor (human, UniProt P48546 22-466)
# T1 sequence (looked up): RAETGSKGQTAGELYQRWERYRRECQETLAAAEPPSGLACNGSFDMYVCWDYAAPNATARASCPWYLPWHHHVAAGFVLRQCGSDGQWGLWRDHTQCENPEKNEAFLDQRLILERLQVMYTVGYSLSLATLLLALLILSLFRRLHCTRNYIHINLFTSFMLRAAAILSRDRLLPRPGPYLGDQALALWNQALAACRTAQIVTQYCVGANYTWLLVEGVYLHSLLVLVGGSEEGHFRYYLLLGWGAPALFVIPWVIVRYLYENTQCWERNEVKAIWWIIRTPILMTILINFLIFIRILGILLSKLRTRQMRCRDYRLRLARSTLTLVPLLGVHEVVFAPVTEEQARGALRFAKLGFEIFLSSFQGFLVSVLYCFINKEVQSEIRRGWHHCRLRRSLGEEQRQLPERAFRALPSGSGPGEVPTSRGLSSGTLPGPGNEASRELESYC
# protocol: cell-based or functional assay
I'd appreciate it if you marked entries Condition met when cAMP EC50 is lower than 0.02 nM and Condition not met when it is not.

Here's what some known entries look like.
binder | group
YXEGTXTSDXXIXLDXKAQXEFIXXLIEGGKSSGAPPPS (Aib2, αMeF(2F)6, 4Pal10, Ac5c11, αMeL13, Orn16, K17(Z), Aib20, D-Glu24, αMeY25, K31(Z), C-terminal NH2; Z = AEEA2-(γ-Glu)-CO-(CH2)12-CO2H) [Example 211] | Condition not met
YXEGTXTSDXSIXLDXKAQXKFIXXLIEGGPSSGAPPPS (Aib2, αMeF(2F)6, hTyr10, αMeL13, Orn16, K17(Z), Aib20, K21(Z), D-Glu24, αMeY25, C-terminal NH2; Z = AEEA2-CO-(CH2)12-CO2H) [Example 272] | Condition not met
YXEGTXTSDXSIXLDXIAQXKFIXXLIEGGKSSGAPPPS (not fully specified; Aib2, αMeF(2F)6, 4Pal10, αMeL13, Orn16, Aib20, K21(AEEA2-CO-(CH2)12-CO2H), D-Glu24, αMeY25, K31(AEEA2-CO-(CH2)2-CO2H as printed), C-terminal NH2) [Example 195] | Condition not met

Shift focus to the following entry.
Please determine if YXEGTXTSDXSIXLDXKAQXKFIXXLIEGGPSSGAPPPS (Aib2, αMeF(2F)6, OMeY10, αMeL13, Orn16, K17(Z), Aib20, K21(Z), D-Glu24, αMeY25, C-terminal NH2; Z = AEEA2-CO-(CH2)12-CO2H) [Example 265] is below 0.02 nM in terms of cAMP EC50.
Condition met
